Ref: the supplement of paper PMC11061612

# Tested on: NCI-H209 (Small Cell Lung Carcinoma);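 note: after 72 h of two-drug dosing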
# Run description: Bliss excess, mean over the matrix (fraction); higher = more synergy
# Bliss excess annotations
Respond using a number only.

Answered cases to consult:
compound="CC1(C)CCC(CN2CCN(c3ccc(C(=O)NS(=O)(=O)c4ccc(NCC5CCOCC5)c([N+](=O)[O-])c4)c(Oc4cnc5[nH]ccc5c4)c3)CC2)=C(c2ccc(Cl)cc2)C1 [Venetoclax] + CCN(CCO)CCCOc1ccc2c(Nc3cc(CC(=O)Nc4cccc(F)c4)[nH]n3)ncnc2c1 [AZD2811] (first compound max 1 µM, 7x7, partner max 1 µM)" measured_endpoint="Bliss excess" reading=0.356
compound="CN(C)CCCOc1ccc(-c2ccc3ncc4c(c3c2)n(C2CCOCC2)c(=O)n4C)cn1 [AZD0156] + C[C@@H]1COCCN1C2=NC(=NC(=C2)C3(CC3)[S@](=N)(=O)C)C4=C5C=CNC5=NC=C4 [AZD6738] (first compound max 1 µM, 7x7, partner max 10 µM)" measured_endpoint="Bliss excess" reading=0.0711
compound="NC1(C(=O)N[C@@H](CCO)c2ccc(Cl)cc2)CCN(c2ncnc3[nH]ccc23)CC1 [Capivasertib] + C[C@@H]1COCCN1C2=NC(=NC(=C2)C3(CC3)[S@](=N)(=O)C)C4=C5C=CNC5=NC=C4 [AZD6738] (first compound max 10 µM, 7x7, partner max 10 µM)" measured_endpoint="Bliss excess" reading=-0.0054

State its Bliss excess for this compound: C=CCn1c(=O)c2cnc(Nc3ccc(N4CCN(C)CC4)cc3)nc2n1-c1cccc(C(C)(C)O)n1 [AZD1775] + C[C@@H]1COCCN1C2=NC(=NC(=C2)C3(CC3)[S@](=N)(=O)C)C4=C5C=CNC5=NC=C4 [AZD6738] (first compound max 1 µM, partner max 10 µM)
0.0422

// fetch Bliss excess given entry Cn1cnc2c(F)c(Nc3ccc(Br)cc3Cl)c(C(=O)NOCCO)cc21 [Selumetinib] + CCN(CCO)CCCOc1ccc2c(Nc3cc(CC(=O)Nc4cccc(F)c4)[nH]n3)ncnc2c1 [AZD2811] (first compound max 10 µM, 7x7, partner max 1 µM)
0.0805

Give me measured Bliss excess, please, for this compound: Cc1c2c(nn1C)CSCc1cc(n(C)n1)CSc1cc(c3ccccc3c1)OCCCc1c(C(=O)O)n(C)c3c-2c(Cl)ccc13 [AZD5991] + C=CCn1c(=O)c2cnc(Nc3ccc(N4CCN(C)CC4)cc3)nc2n1-c1cccc(C(C)(C)O)n1 [AZD1775] (first compound max 1 µM, partner max 1 µM)
0.0103

For Cc1c2c(nn1C)CSCc1cc(n(C)n1)CSc1cc(c3ccccc3c1)OCCCc1c(C(=O)O)n(C)c3c-2c(Cl)ccc13 [AZD5991] + C[C@@H](Nc1cc(F)cc(F)c1)c1cc(C(=O)N(C)C)cc2c(=O)cc(N3CCOCC3)oc12 [AZD8186] (first compound max 1 µM, 7x7, partner max 3 µM) , write its Bliss excess.
-0.0154

Look up Bliss excess of C[C@@H](c1ccc2nccn2c1)n1nnc2ncc(-c3cnn(C)c3)nc21 [Savolitinib] + CC1(C)CCC(CN2CCN(c3ccc(C(=O)NS(=O)(=O)c4ccc(NCC5CCOCC5)c([N+](=O)[O-])c4)c(Oc4cnc5[nH]ccc5c4)c3)CC2)=C(c2ccc(Cl)cc2)C1 [Venetoclax] (first compound max 1 µM, 7x7, partner max 1 µM) and report it.
-0.0361
